- test description: Henry solubility constant Hcp at 298.15 K (mol/(m3 Pa))
- assay context: reference: Destaillats and Charles (2002)
Classify as follows. Reported Henry solubility constant Hcp greater than or equal to 0.01: Condition met. Reported Henry solubility constant Hcp below: Condition not met.

Here are 4 compounds together with their reported answers.
| smiles input | qualitative label |
| --- | --- |
| CC/C(C)=N\OCc1c(F)c(F)c(F)c(F)c1F | Condition not met |
| CC(C)=NOCc1c(F)c(F)c(F)c(F)c1F | Condition met |
| C/C=C/C=N/OCc1c(F)c(F)c(F)c(F)c1F | Condition not met |
| Fc1c(F)c(F)c(CON=CC=NOCc2c(F)c(F)c(F)c(F)c2F)c(F)c1F | Condition met |

Here is the next item to consider.
Is Henry solubility constant Hcp for c1ccc2ccccc2c1 at or above 0.01?
Condition met

----------
- test description: Henry solubility constant Hcp at 298.15 K (mol/(m3 Pa))
- assay context: reference: Destaillats and Charles (2002)
parameter: Henry solubility constant Hcp
Field format: numeric only.

Worked cases, Henry solubility constant Hcp given:
| compound | recorded result |
| --- | --- |
| C=NOCc1c(F)c(F)c(F)c(F)c1F [PFBHA-methanal] | 0.016 |
| c1ccc(-c2ccccc2)cc1 [biphenyl] | 0.034 |
| CC=NOCc1c(F)c(F)c(F)c(F)c1F [PFBHA-ethanal] | 0.019 |

As a next step, examine the compound that follows.
# Henry solubility constant Hcp of CCCCCCC/C=N/OCc1c(F)c(F)c(F)c(F)c1F [PFBHA-octanal] = 0.0079

----------
- test description: Henry solubility constant Hcp at 298.15 K (mol/(m3 Pa))
- assay context: reference: Destaillats and Charles (2002)
Classify as follows. Reported Henry solubility constant Hcp greater than or equal to 0.009: true. Reported Henry solubility constant Hcp below: false.

| smiles input | qualitative label |
| --- | --- |
| CCCCCCCCC/C=N/OCc1c(F)c(F)c(F)c(F)c1F | true |

Is Henry solubility constant Hcp for CCCCC/C=N/OCc1c(F)c(F)c(F)c(F)c1F at or above 0.009?
false

Is Henry solubility constant Hcp for Fc1c(F)c(F)c(CO/N=C/c2ccccc2)c(F)c1F at or above 0.009?
false

Is Henry solubility constant Hcp for Cc1ccccc1 at or above 0.009?
false

Is Henry solubility constant Hcp for C=C/C=N/OCc1c(F)c(F)c(F)c(F)c1F at or above 0.009?
true
